Assay: molar heat capacity at constant pressure
Details: 290 K; 101.33 kPa; Crystal

compound: CCCCCCCCCCCCCCCCCC(=O)OC [methyl octadecanoate]
molar heat capacity at constant pressure [J/K/mol]: 541.05
//
compound: CCCCCCCCCCCCCCCC(=O)OC [methyl hexadecanoate]
molar heat capacity at constant pressure [J/K/mol]: 482.7
//
compound: CCCCCCCCCCCCCCCCC(=O)OC [methyl heptadecanoate]
molar heat capacity at constant pressure [J/K/mol]: 517.76
//
compound: CCCCCCCCCCCCCCCCCCCC(=O)OC [methyl eicosanoate]
molar heat capacity at constant pressure [J/K/mol]: 551.06
//
compound: CCCCCCCCCCCCCCCCCCC(=O)OC [methyl nonadecanoate]
molar heat capacity at constant pressure [J/K/mol]: 549.43

###

In this section, each of the compounds is paired with its reported molar heat capacity at constant pressure.
Experiment: molar heat capacity at constant pressure
Conditions: 110 K; 101.33 kPa; Crystal
observation.type: molar heat capacity at constant pressure (J/K/mol)

compound: CCCCCCCCCC(=O)OC [methyl decanoate]
test.result: 151.65

compound: CCCCCCCC(=O)OC [methyl octanoate]
test.result: 131.1

compound: CCCCCCCCC(=O)OC [methyl nonanoate]
test.result: 143.79

compound: CCCCCCCCCCCCCCCCCCC(=O)OC [methyl nonadecanoate]
test.result: 244.31

compound: CCCCCCCCCCCCCCC(=O)OC [methyl pentadecanoate]
test.result: 203.86

compound: CCCCCCCCCCCCC(=O)OC [methyl tridecanoate]
test.result: 183.91

compound: CCCCCCCCCCCC(=O)OC [methyl dodecanoate]
test.result: 171.83

compound: CCCCCCCCCCC(=O)OC [methyl undecanoate]
test.result: 163.81

compound: CCCCCCCCCCCCCCCC(=O)OC [methyl hexadecanoate]
test.result: 213.49

compound: CCCCCCCCCCCCCC(=O)OC [methyl tetradecanoate]
test.result: 192.06

compound: CCCCCCCCCCCCCCCCCC(=O)OC [methyl octadecanoate]
test.result: 234.15

compound: CCCCCCCCCCCCCCCCC(=O)OC [methyl heptadecanoate]
test.result: 224.09

compound: CCCCCCCCCCCCCCCCCCCC(=O)OC [methyl eicosanoate]
test.result: 255.12

###

Assay: molar heat capacity at constant pressure
Conditions: 220 K; 101.33 kPa; Crystal
Friendly reminder: molar heat capacity at constant pressure below 300 J/K/mol is 1, at or above is -1.

compound: CCCCCCCCCCC(=O)OC [methyl undecanoate]
class: 1

compound: CCCCCCCCC(=O)OC [methyl nonanoate]
class: 1

compound: CCCCCCCCCCCCCCCCCC(=O)OC [methyl octadecanoate]
class: -1

compound: CCCCCCCCCC(=O)OC [methyl decanoate]
class: 1

compound: CCCCCCCCCCCCCCCCC(=O)OC [methyl heptadecanoate]
class: -1

compound: CCCCCCCCCCCCCCCCCCC(=O)OC [methyl nonadecanoate]
class: -1

compound: CCCCCCCCCCCCCCCCCCCC(=O)OC [methyl eicosanoate]
class: -1

compound: CCCCCCCCCCCCCCCC(=O)OC [methyl hexadecanoate]
class: -1

compound: CCCCCCCCCCCCCCC(=O)OC [methyl pentadecanoate]
class: -1

compound: CCCCCCCCCCCC(=O)OC [methyl dodecanoate]
class: 1

compound: CCCCCCCC(=O)OC [methyl octanoate]
class: 1
